Recorded values, source the supplement of paper PMC5908809.

System: NK-92 (IL-2 2.5 ng/mL)
Assay: percent inhibition of viability; higher = more inhibition
Conditions: 72 h; 10000 nM
measured-property: percent inhibition of viability (%)
I only need the number, in %, no unit after it.

q: What percent inhibition of viability appears in the records for this compound with NK-92 (IL-2 2.5 ng/mL)? CN1CCc2c(c3ccccc3n2Cc2ccc(C(=O)NO)cc2)C1 [Tubastatin A] (max concentration tested 10000 nM)
a: 92.4

q: Notebook entry, NK-92 (IL-2 2.5 ng/mL) assay: percent inhibition of viability of COc1ccc(-c2nc(N3CCOCC3)c3sc(CN(C)c4ncc(C(=O)NO)cn4)cc3n2)cn1 [CUDC-907] (max concentration tested 10000 nM) = ?
a: 97

q: Requested read-out percent inhibition of viability, target or system NK-92 (IL-2 2.5 ng/mL), entry COc1ccc(COc2cc3oc(=O)c4cc(C(C)O)ccc4c3cc2OC)cc1 (stereo unspecified) [Palomid-529] (max concentration tested 10000 nM)
a: 83.4

q: Please tell me: percent inhibition of viability of N[C@@H]1CCCN(c2c(/C=C3\SC(=O)NC3=O)cccc2-c2ccccc2)C1 [AZD1208] (max concentration tested 10000 nM) , system NK-92 (IL-2 2.5 ng/mL)?
a: 9

q: Test system NK-92 (IL-2 2.5 ng/mL); read-out percent inhibition of viability; what value for O=C(CCBr)N1CCN(C(=O)CCBr)CC1 [Pipobroman] (max concentration tested 10000 nM) ?
a: 22.7

q: Lab note: need percent inhibition of viability with NK-92 (IL-2 2.5 ng/mL) for entry CC(C)CC(=O)Nc1n[nH]c2c1CN(C(=O)C1CCN(C)CC1)C2(C)C (max concentration tested 10000 nM) , please look it up.
a: 52.1

* * *

Each entry below carries its reported percent inhibition of viability.
Tested on: KHYG-1 (IL-2 2.5 ng/mL)
Assay: percent inhibition of viability; higher = more inhibition
Conditions: 72 h; 1000 nM
The answer should read as a number with its unit following.

1) Nc1ncnc2c1c(COc1cccc(Cl)c1)nn2C1CCOCC1 (max concentration tested 10000 nM); 9.04%
2) COc1cc2c(Oc3ccc(NC(=O)C4(C(=O)Nc5ccc(F)cc5)CC4)cc3F)ccnc2cc1OCCCN1CCOCC1 [Foretinib] (max concentration tested 1000 nM); 49.9%
3) Cc1cn(-c2cc(NC(=O)c3ccc(C)c(Nc4nccc(-c5cccnc5)n4)c3)cc(C(F)(F)F)c2)cn1 [Nilotinib] (max concentration tested 10000 nM); 5.38%
4) Cc1nc(N)sc1-c1ccnc(Nc2ccc(N3CCOCC3)cc2)n1 [CYC-116] (max concentration tested 10000 nM); 70.7%
5) CCc1cc(Nc2nccc(-c3c(-c4ccc(OC)c(C(=O)Nc5c(F)cccc5F)c4)nc4ccccn34)n2)c(OC)cc1N1CCC(N2CCN(S(C)(=O)=O)CC2)CC1 (max concentration tested 10000 nM); -2.02%
6) CN[C@@H]1C[C@H]2O[C@@](C)([C@@H]1OC)n1c3ccccc3c3c4c(c5c6ccccc6n2c5c31)C(=O)N[C@H]4O [UCN-01] (max concentration tested 10000 nM); 110%
7) CNC(=O)c1cc(Oc2ccc(NC(=O)Nc3ccc(Cl)c(C(F)(F)F)c3)cc2)ccn1 [Sorafenib] (max concentration tested 1000 nM); -0.82%
8) CS(=O)(=O)N1CCc2c(-c3cnc(N)nc3)nc(N3CCOCC3)nc21 (max concentration tested 10000 nM); 9.84%
9) CNc1nc(-c2ccc3c(N)n[nH]c3c2)cc(N2C[C@@H](C(=O)NC3CCCCC3)CC[C@H]2C)n1 (max concentration tested 10000 nM); 6.54%
10) Cc1cc(OCc2nnc(SC3CCCC3)n2-c2cccnc2)ccc1-c1ccc(S(C)(=O)=O)cc1 [NMS-873] (max concentration tested 10000 nM); 65.7%

q: Requested read-out: percent inhibition of viability. Entry: O=C(Nc1c[nH]nc1-c1nc2ccc(CN3CCOCC3)cc2[nH]1)NC1CC1 [AT9283] (max concentration tested 1000 nM)
a: 96%

q: Please give the measured percent inhibition of viability for this compound: CN(C)C[C@@H]1CCn2cc(c3ccccc32)C2=C(C(=O)NC2=O)c2cn(c3ccccc23)CCO1 [Ruboxistaurin] (max concentration tested 10000 nM)
a: 34%

q: Query (compound): NC(=O)c1cccc2cn(-c3ccc([C@@H]4CCCNC4)cc3)nc12 [Niraparib] (max concentration tested 10000 nM) ; field requested: percent inhibition of viability
a: 10.6%

q: What value of measured percent inhibition of viability is listed for CC(O)(CS(=O)(=O)c1ccc(F)cc1)C(=O)Nc1ccc(C#N)c(C(F)(F)F)c1 (centres undefined) [Bicalutamide] (max concentration tested 10000 nM) ?
a: 27.4%

q: What value of measured percent inhibition of viability is listed for CC(C)C(=O)Nc1ccc([N+](=O)[O-])c(C(F)(F)F)c1 [Flutamide] (max concentration tested 10000 nM) ?
a: -4.37%

q: For the compound shown here, C[C@@H](Oc1ccc2[nH]nc(/C=C/c3cnn(CCO)c3)c2c1)c1c(Cl)cncc1Cl (max concentration tested 1000 nM) , give the reported percent inhibition of viability.
a: 98.7%

q: percent inhibition of viability lookup needed for S=C(NCc1ccc2c(c1)OCO2)N1CCN(c2ncnc3c2oc2ccccc23)CC1 [Amuvatinib] (max concentration tested 10000 nM) , thanks.
a: 24.3%

q: # get_value(readout='percent inhibition of viability', item= O=C(CCBr)N1CCN(C(=O)CCBr)CC1 [Pipobroman] (max concentration tested 10000 nM) )
a: 3.77%

q: Could you tell me which percent inhibition of viability is on file for CC[C@@]1(O)C(=O)OCc2c1cc1n(c2=O)Cc2cc3c(CN(C)C)c(O)ccc3nc2-1 [Topotecan] (max concentration tested 10000 nM) ?
a: 104%

q: Request the reported percent inhibition of viability associated with CO[C@@H]1[C@H](N(C)C(=O)c2ccccc2)C[C@H]2O[C@]1(C)n1c3ccccc3c3c4c(c5c6ccccc6n2c5c31)C(=O)NC4 [Midostaurin] (max concentration tested 10000 nM)
a: 105%

* * *

System: NKL (IL-2 2.5 ng/mL)
Assay: relative IC50 (inflection point of fitted viability curve, relative to fitted max inhibition); higher = less sensitive
Details: 72 h
measured-property: relative IC50 (nM)
Just the number in nM, nothing appended.

1. Cn1nnc2c(C(N)=O)ncn2c1=O [Temozolomide]; 25700
2. CNCc1ccc(-c2[nH]c3cc(F)cc4c3c2CCNC4=O)cc1; 438
3. Cc1cc(Nc2cc(N3CCN(C)CC3)nc(/C=C/c3ccccc3)n2)n[nH]1; 503
4. Cc1ccc(C(=O)N(CCCN)[C@@H](c2oc3cc(Cl)ccc3c(=O)c2Cc2ccccc2)C(C)C)cc1; 5.2
5. CO[C@@H]1[C@H](N(C)C(=O)c2ccccc2)C[C@H]2O[C@]1(C)n1c3ccccc3c3c4c(c5c6ccccc6n2c5c31)C(=O)NC4; 127

q: Observed relative IC50 on NKL (IL-2 2.5 ng/mL) for CC(C)n1nc(-c2ccc3oc(N)nc3c2)c2c(N)ncnc21 , please.
a: 8.91

q: Field: relative IC50 (NKL (IL-2 2.5 ng/mL)). Entry: CCC1=C[C@@H]2CN(C1)Cc1c([nH]c3ccccc13)[C@@](C(=O)OC)(c1cc3c(cc1OC)N(C)[C@H]1[C@@](O)(C(=O)OC)[C@H](OC(C)=O)[C@]4(CC)C=CCN5CC[C@]31[C@@H]54)C2
a: 3.89

* * *

Test system: KAI3 (IL-2 2.5 ng/mL)
Experiment: percent inhibition of viability; higher = more inhibition
Details: 72 h; 250 nM
Catalogue of percent inhibition of viability readings, one per entry.
Your answer is read as %, so omit the unit and give the number.

1. COc1cc(C(=O)NC2CCN(C)CC2)c(F)cc1Nc1ncc2c(n1)N(C1CCCC1)CC(F)(F)C(=O)N2C [TAK-960] (max concentration tested 2500 nM); -1.54
2. CCOc1cc2ncc(C#N)c(Nc3ccc(F)c(Cl)c3)c2cc1NC(=O)/C=C/CN(C)C [Pelitinib] (max concentration tested 2500 nM); 40.4
3. CCNC(=O)Nc1ccc(-c2nc3c(c(N4CCOC[C@@H]4C)n2)CCN(C2COC2)C3)cc1 [RG-7603] (max concentration tested 2500 nM); 24.3

q: Item Nc1nc(NC2CC2)cc(-c2cccc(Cl)c2Cl)n1 [TH588] (max concentration tested 25000 nM) with KAI3 (IL-2 2.5 ng/mL) - percent inhibition of viability?
a: 2.89

q: Lab request: please report percent inhibition of viability under test system KAI3 (IL-2 2.5 ng/mL) for CN1CCN(C2CCN(C(=O)Nc3cc(Oc4ccc(NC(=O)C5(C(=O)Nc6ccc(F)cc6)CC5)c(F)c4)ccn3)CC2)CC1 [Golvatinib] (max concentration tested 2500 nM)
a: 6.28
